Assay: in vivo
Details: mouse, brain, inhaled, 20 actuations

Compound | Units | concentration at 20 min
CCCCCc1cc(O)c2c(c1)OC(C)(C)[C@@H]1CCC(C)=C[C@@H]21 (relative stereo) [Δ^9 THC] | ng/g | 340

====

Experiment: in vivo
Settings: mouse, brain, inhaled, 40 actuations

Compound | Units | concentration at 20 min
CCCCCc1cc(O)c2c(c1)OC(C)(C)[C@@H]1CCC(C)=C[C@@H]21 (relative stereo) [Δ^9 THC] | ng/g | 791

====

Test: Blood levels of Δ^9-THC by LC-MS
Settings: mouse, whole blood, iv, 1 mg/kg

Molecule | Units | concentration at 20 min
CCCCCc1cc(O)c2c(c1)OC(C)(C)[C@@H]1CCC(C)=C[C@@H]21 (relative stereo) | ng/g | 102

====

Test: Blood levels of Δ^9-THC by LC-MS
Conditions: mouse, whole blood, inhaled, 20 actuations
Measure name: concentration at 20 min (ng/g)

Compound | Measure name | Units | Recorded measurement
CCCCCc1cc(O)c2c(c1)OC(C)(C)[C@@H]1CCC(C)=C[C@@H]21 (relative stereo) | concentration at 20 min | ng/g | 409

====

Assay: Blood levels of Δ^9-THC by LC-MS
Details: mouse, whole blood, iv, 3 mg/kg

Molecule | Units | concentration at 20 min
CCCCCc1cc(O)c2c(c1)OC(C)(C)[C@@H]1CCC(C)=C[C@@H]21 (relative stereo) | ng/g | 365

====

Assay: in vivo
Settings: mouse, brain, iv, 10 mg/kg
Measure name: concentration at 20 min (ng/g)

Compound | Measure name | Recorded measurement
CCCCCc1cc(O)c2c(c1)OC(C)(C)[C@@H]1CCC(C)=C[C@@H]21 (relative stereo) | concentration at 20 min | 3310
